Reported values of cell viability for individual entries
- Test system: Vero E6
- testProtocol: cell viability relative to DMSO; higher = less toxic
- reportedConditions: 72 h; 10000 nM
State just the number; it will be interpreted in %.

- CCOC(=O)[C@H](CCc1ccccc1)N[C@H]1CS[C@H](c2cccs2)CN(CC(=O)O)C1=O: 97.8

Please provide the recorded cell viability for Cc1ccc(-c2ncn(-c3ccc(Nc4nccc(-c5cccc(N6CCOCC6)c5)n4)cc3)n2)cn1 , tested on Vero E6.
92.9

What would you report for CCCC[C@@H](C=O)NC(=O)[C@H](CC(C)C)NC(=O)OCc1ccccc1 ?
92.1

What would you report for O=C(O)[C@H](O)c1ccccc1 ?
98.9

What would you report for O=c1c(-c2ccc(O)cc2)coc2c([C@@H]3O[C@H](CO)[C@@H](O)[C@H](O)[C@H]3O)c(O)ccc12 ?
91.8

What would you report for CCc1cc2c(cc1N1CCC(N3CCOCC3)CC1)C(C)(C)c1[nH]c3cc(C#N)ccc3c1C2=O ?
89

Values compiled from the supplement of paper PMC13380429.
